# assay.overview: Pharmacokinetics in plasma after single- and multiple-dose administration
# Type: in vivo, human
# cond: human, plasma, oral, 200 mg, Single-dose administration
readout.kind: Tmax (h)
Give the value, in units of h, as a plain number.

Sure, the documented Tmax for Cc1ccc(C(=O)Nc2ccc(CN3CCN(C)CC3)c(C(F)(F)F)c2)cc1C#Cc1nnc2ccccn12 is 3.46

---

# assay.overview: Pharmacokinetics in plasma after single- and multiple-dose administration
# Type: in vivo, human
# cond: human, plasma, oral
readout.kind: half-life

The compound listed as Cc1ccc(C(=O)Nc2ccc(CN3CCN(C)CC3)c(C(F)(F)F)c2)cc1C#Cc1nnc2ccccn12 [vamotinib] has a reported half-life of 13.5 h

---

# assay.overview: Pharmacokinetics in plasma after single- and multiple-dose administration
# Type: in vivo, human
# cond: human, plasma, oral, 100 mg, Multiple-dose administration
readout.kind: Tmax (h)
Write it as a number; the unit h goes unstated.

The molecule Cc1ccc(C(=O)Nc2ccc(CN3CCN(C)CC3)c(C(F)(F)F)c2)cc1C#Cc1nnc2ccccn12 showed Tmax equal to 3.36

---

# assay.overview: Pharmacokinetics in plasma after single- and multiple-dose administration
# Type: in vivo, human
# cond: human, plasma, oral, 200 mg, Multiple-dose administration, 200 mg; read-out: AUC0-24, Mean
readout.kind: AUC(0-t) (ng·h/mL)
Your answer should be a plain number; it is taken to be in ng·h/mL.

The compound listed as Cc1ccc(C(=O)Nc2ccc(CN3CCN(C)CC3)c(C(F)(F)F)c2)cc1C#Cc1nnc2ccccn12 [vamotinib] has a reported AUC(0-t) of 1580

---

# assay.overview: Pharmacokinetics in plasma after single- and multiple-dose administration
# Format: in vivo, human
# cond: human, plasma, oral, 400 mg, Single-dose administration
readout.kind: Tmax (h)
Express the result in h but write the number alone.

Lab note: Cc1ccc(C(=O)Nc2ccc(CN3CCN(C)CC3)c(C(F)(F)F)c2)cc1C#Cc1nnc2ccccn12 [vamotinib] gave Tmax of 4.72

---

# assay.overview: Pharmacokinetics in plasma after single- and multiple-dose administration
# Format: in vivo, human
# cond: human, plasma, oral, 100 mg, Single-dose administration
readout.kind: Cmax

// sample Cc1ccc(C(=O)Nc2ccc(CN3CCN(C)CC3)c(C(F)(F)F)c2)cc1C#Cc1nnc2ccccn12 , its Cmax was 89.7 ng/mL

---

# assay.overview: Pharmacokinetics in plasma after single- and multiple-dose administration
# Format: in vivo, human
# cond: human, plasma, oral, 50 mg, Single-dose administration
readout.kind: Tmax (h)
Give just the numeric value; h need not be written.

Entry Cc1ccc(C(=O)Nc2ccc(CN3CCN(C)CC3)c(C(F)(F)F)c2)cc1C#Cc1nnc2ccccn12 [vamotinib] ; Tmax = 2.67

---

# assay.overview: Pharmacokinetics in plasma after single- and multiple-dose administration
# Assay type: in vivo, human
# cond: human, plasma, oral, 300 mg, Multiple-dose administration, 300 mg; read-out: AUC0-24, Mean
readout.kind: AUC(0-t) (ng·h/mL)
Please respond with the number in ng·h/mL and leave the unit unwritten.

AUC(0-t) recorded for this compound, Cc1ccc(C(=O)Nc2ccc(CN3CCN(C)CC3)c(C(F)(F)F)c2)cc1C#Cc1nnc2ccccn12 [vamotinib] , is 2260

---

# assay.overview: Pharmacokinetics in plasma after single- and multiple-dose administration
# Assay type: in vivo, human
# cond: human, plasma, oral, 600 mg, Single-dose administration, 600 mg; read-out: AUC0-t, Mean
readout.kind: AUC(0-t) (ng·h/mL)
State the answer as a number, implicitly in ng·h/mL.

The reported value for Cc1ccc(C(=O)Nc2ccc(CN3CCN(C)CC3)c(C(F)(F)F)c2)cc1C#Cc1nnc2ccccn12 in terms of AUC(0-t) is 3020
